Just for reference, paper PMC6327999 is where these values come from.

Below, each of the molecules is paired with its reported pIC50 value.
Tested on: human normal heptical cell line (LO2)
ASSAY: Cytotoxicity, MTT assay, non-malignant LO2
Assay type: cell-based
CONDITION: 24 hours, non-malignant cells
pIC50: −log10 of the molar value.
QUANTITY_MEASURED: pIC50

COc1ccc(/C=N/c2cccc(/C=C3\CCC/C(=C\c4cccc(/N=C/c5ccc(OC)cc5O)c4)C3=O)c2)c(O)c1: 4.95
CN1C/C(=C\c2cc(/N=C/c3ccc(O)c(O)c3O)ccc2F)C(=O)/C(=C/c2cc(/N=C/c3ccc(O)c(O)c3O)ccc2F)C1: 4.74
COc1cc(Br)cc(/C=N/c2cccc(/C=C3\CN(C)C/C(=C\c4cccc(/N=C/c5cc(Br)cc(OC)c5O)c4)C3=O)c2)c1O: 4.96
CN1C/C(=C\c2cccc(/N=C/c3ccccc3O)c2)C(=O)/C(=C/c2cccc(/N=C/c3ccccc3O)c2)C1: 4.97
CN1C/C(=C\c2cccc(N)c2)C(=O)/C(=C/c2cccc(N)c2)C1: 4.77

###

Test system: human liver hepatocellular carcinoma cell line (Hepg2)
ASSAY: Cytotoxicity, MTT assay, HePG2
Type: cell-based
CONDITION: quotient of the IC50 values towards nonmalignant LO2 cells
Below, each of the compounds is paired with its reported HePG2 SI value.
QUANTITY_MEASURED: HePG2 SI

Nc1ccc(F)c(/C=C2\CNC/C(=C\c3cc(N)ccc3F)C2=O)c1: 3.2
O=C1/C(=C/c2cc(/N=C/c3cccc(O)c3O)ccc2F)CNC/C1=C\c1cc(/N=C/c2cccc(O)c2O)ccc1F: 9.7
COc1cc(Br)cc(/C=N/c2cccc(/C=C3\CCC/C(=C\c4cccc(/N=C/c5cc(Br)cc(OC)c5O)c4)C3=O)c2)c1O: 6.0
O=C1/C(=C/c2cccc(/N=C/c3cc(Br)ccc3O)c2)CCC/C1=C\c1cccc(/N=C/c2cc(Br)ccc2O)c1: 0.9
CN1C/C(=C\c2cccc(N)c2)C(=O)/C(=C/c2cccc(N)c2)C1: 5.4
O=C1/C(=C/c2cccc(/N=C/c3cc(F)ccc3O)c2)CCC/C1=C\c1cccc(/N=C/c2cc(F)ccc2O)c1: 6.1
O=C1/C(=C/c2cccc(/N=C/c3ccccc3O)c2)CCC/C1=C\c1cccc(/N=C/c2ccccc2O)c1: 5.6
CN1C/C(=C\c2cc(/N=C/c3ccc(O)c(O)c3O)ccc2F)C(=O)/C(=C/c2cc(/N=C/c3ccc(O)c(O)c3O)ccc2F)C1: 7.1
CN1C/C(=C\c2cccc(/N=C/c3cc(Br)ccc3O)c2)C(=O)/C(=C/c2cccc(/N=C/c3cc(Br)ccc3O)c2)C1: 3.6
O=C1/C(=C/c2cc(/N=C/c3cc(O)ccc3O)ccc2F)CNC/C1=C\c1cc(/N=C/c2cc(O)ccc2O)ccc1F: 4.3
CN1C/C(=C\c2cc(/N=C/c3cccc(O)c3O)ccc2F)C(=O)/C(=C/c2cc(/N=C/c3cccc(O)c3O)ccc2F)C1: 8.4
COc1cc(Br)cc(/C=N/c2cccc(/C=C3\CN(C)C/C(=C\c4cccc(/N=C/c5cc(Br)cc(OC)c5O)c4)C3=O)c2)c1O: 8.6
CN1C/C(=C\c2cc(/N=C/c3cc(O)ccc3O)ccc2F)C(=O)/C(=C/c2cc(/N=C/c3cc(O)ccc3O)ccc2F)C1: 7.8
Nc1cccc(/C=C2\CCC/C(=C\c3cccc(N)c3)C2=O)c1: 2.6
O=C1/C(=C/c2cc(/N=C/c3ccc(O)c(O)c3O)ccc2F)CNC/C1=C\c1cc(/N=C/c2ccc(O)c(O)c2O)ccc1F: 24.5

###

Tested on: human acute mononuclear granulocyte leukemia (THP-1)
ASSAY: Cytotoxicity, MTT assay, THP-1
Assay type: cell-based
CONDITION: quotient of the IC50 values towards nonmalignant LO2 cells
QUANTITY_MEASURED: THP-1 SI

Nc1cccc(/C=C2\CCC/C(=C\c3cccc(N)c3)C2=O)c1: 4.5
CN1C/C(=C\c2cc(/N=C/c3ccc(O)c(O)c3O)ccc2F)C(=O)/C(=C/c2cc(/N=C/c3ccc(O)c(O)c3O)ccc2F)C1: 11.4
CN1C/C(=C\c2cccc(/N=C/c3ccccc3O)c2)C(=O)/C(=C/c2cccc(/N=C/c3ccccc3O)c2)C1: 12.0
COc1cc(Br)cc(/C=N/c2cccc(/C=C3\CN(C)C/C(=C\c4cccc(/N=C/c5cc(Br)cc(OC)c5O)c4)C3=O)c2)c1O: 11.8
COc1ccc(/C=N/c2cccc(/C=C3\CN(C)C/C(=C\c4cccc(/N=C/c5ccc(OC)cc5O)c4)C3=O)c2)c(O)c1: 12.3
Nc1ccc(F)c(/C=C2\CNC/C(=C\c3cc(N)ccc3F)C2=O)c1: 13.9
CN1C/C(=C\c2cc(N)ccc2F)C(=O)/C(=C/c2cc(N)ccc2F)C1: 10.3
COc1cc(/C=C/C(=O)CC(=O)/C=C/c2ccc(O)c(OC)c2)ccc1O [Curcumin, reference compound]: 1.3

###

Tested on: human lung carcinoma cells (A549)
ASSAY: Cytotoxicity, MTT assay, A549
Format: cell-based
CONDITION: quotient of the IC50 values towards nonmalignant LO2 cells
QUANTITY_MEASURED: A549 SI

CN1C/C(=C\c2cc(/N=C/c3cccc(O)c3O)ccc2F)C(=O)/C(=C/c2cc(/N=C/c3cccc(O)c3O)ccc2F)C1: 11.6
CN1C/C(=C\c2cc(N)ccc2F)C(=O)/C(=C/c2cc(N)ccc2F)C1: 5.4
COc1cc(Br)cc(/C=N/c2cccc(/C=C3\CCC/C(=C\c4cccc(/N=C/c5cc(Br)cc(OC)c5O)c4)C3=O)c2)c1O: 4.4
COc1ccc(/C=N/c2cccc(/C=C3\CCC/C(=C\c4cccc(/N=C/c5ccc(OC)cc5O)c4)C3=O)c2)c(O)c1: 2.8

###

Tested on: human liver hepatocellular carcinoma cell line (Hepg2)
ASSAY: Cytotoxicity, MTT assay, HePG2
Assay type: cell-based
CONDITION: quotient of the IC50 values towards nonmalignant LO2 cells
Simple rule here: HePG2 SI less than 4 is TRUE, otherwise FALSE.

CN1C/C(=C\c2cccc(/N=C/c3cc(F)ccc3O)c2)C(=O)/C(=C/c2cccc(/N=C/c3cc(F)ccc3O)c2)C1: FALSE
CN1C/C(=C\c2cc(N)ccc2F)C(=O)/C(=C/c2cc(N)ccc2F)C1: TRUE
COc1ccc(/C=N/c2ccc(F)c(/C=C3\CNC/C(=C\c4cc(/N=C/c5ccc(OC)cc5O)ccc4F)C3=O)c2)c(O)c1: FALSE
COc1ccc(/C=N/c2cccc(/C=C3\CN(C)C/C(=C\c4cccc(/N=C/c5ccc(OC)cc5O)c4)C3=O)c2)c(O)c1: FALSE
COc1cc(/C=C/C(=O)CC(=O)/C=C/c2ccc(O)c(OC)c2)ccc1O [Curcumin, reference compound]: TRUE
COc1ccc(/C=N/c2cccc(/C=C3\CCC/C(=C\c4cccc(/N=C/c5ccc(OC)cc5O)c4)C3=O)c2)c(O)c1: TRUE

###

System: human chronic myelogenous leukemia cell line (K562)
ASSAY: Cytotoxicity, MTT assay, K562
Format: cell-based
CONDITION: Homo sapiens, K562; MTT, 24 hours
Excerpt: […]
QUANTITY_MEASURED: IC50 (nM)

O=C1/C(=C/c2cccc(/N=C/c3cc(F)ccc3O)c2)CCC/C1=C\c1cccc(/N=C/c2cc(F)ccc2O)c1: 3400
COc1ccc(/C=N/c2cccc(/C=C3\CN(C)C/C(=C\c4cccc(/N=C/c5ccc(OC)cc5O)c4)C3=O)c2)c(O)c1: 2000
CN1C/C(=C\c2cccc(/N=C/c3cc(Br)ccc3O)c2)C(=O)/C(=C/c2cccc(/N=C/c3cc(Br)ccc3O)c2)C1: 6200
O=C1/C(=C/c2cc(/N=C/c3cccc(O)c3O)ccc2F)CNC/C1=C\c1cc(/N=C/c2cccc(O)c2O)ccc1F: 1500
COc1cc(Br)cc(/C=N/c2cccc(/C=C3\CN(C)C/C(=C\c4cccc(/N=C/c5cc(Br)cc(OC)c5O)c4)C3=O)c2)c1O: 1800
Nc1cccc(/C=C2\CCC/C(=C\c3cccc(N)c3)C2=O)c1: 22200
CN1C/C(=C\c2cccc(/N=C/c3cc(F)ccc3O)c2)C(=O)/C(=C/c2cccc(/N=C/c3cc(F)ccc3O)c2)C1: 2150
O=C1/C(=C/c2cc(/N=C/c3cc(O)ccc3O)ccc2F)CNC/C1=C\c1cc(/N=C/c2cc(O)ccc2O)ccc1F: 5700
COc1cc(Br)cc(/C=N/c2cccc(/C=C3\CCC/C(=C\c4cccc(/N=C/c5cc(Br)cc(OC)c5O)c4)C3=O)c2)c1O: 4200
CN1C/C(=C\c2cccc(N)c2)C(=O)/C(=C/c2cccc(N)c2)C1: 4300
COc1cccc2c1C(=O)c1c(O)c3c(c(O)c1C2=O)C[C@@](O)(C(=O)CO)C[C@@H]3O[C@H]1C[C@H](N)[C@H](O)[C@H](C)O1 [DOX, Doxorubicin, reference compound]: 1600
O=C1/C(=C/c2cc(/N=C/c3ccc(O)c(O)c3O)ccc2F)CNC/C1=C\c1cc(/N=C/c2ccc(O)c(O)c2O)ccc1F: 1300
CN1C/C(=C\c2cc(/N=C/c3cccc(O)c3O)ccc2F)C(=O)/C(=C/c2cc(/N=C/c3cccc(O)c3O)ccc2F)C1: 2800
O=C1/C(=C/c2cccc(/N=C/c3cc(Br)ccc3O)c2)CCC/C1=C\c1cccc(/N=C/c2cc(Br)ccc2O)c1: 14000
CN1C/C(=C\c2cc(/N=C/c3cc(O)ccc3O)ccc2F)C(=O)/C(=C/c2cc(/N=C/c3cc(O)ccc3O)ccc2F)C1: 5100
CN1C/C(=C\c2cc(N)ccc2F)C(=O)/C(=C/c2cc(N)ccc2F)C1: 3000
COc1ccc(/C=N/c2ccc(F)c(/C=C3\CNC/C(=C\c4cc(/N=C/c5ccc(OC)cc5O)ccc4F)C3=O)c2)c(O)c1: 1500
CN1C/C(=C\c2cccc(/N=C/c3ccccc3O)c2)C(=O)/C(=C/c2cccc(/N=C/c3ccccc3O)c2)C1: 2800
O=C1/C(=C/c2cccc(/N=C/c3ccccc3O)c2)CCC/C1=C\c1cccc(/N=C/c2ccccc2O)c1: 3400
Nc1ccc(F)c(/C=C2\CNC/C(=C\c3cc(N)ccc3F)C2=O)c1: 2000
CN1C/C(=C\c2cc(/N=C/c3ccc(O)c(O)c3O)ccc2F)C(=O)/C(=C/c2cc(/N=C/c3ccc(O)c(O)c3O)ccc2F)C1: 1900
COc1cc(/C=C/C(=O)CC(=O)/C=C/c2ccc(O)c(OC)c2)ccc1O [Curcumin, reference compound]: 22100
COc1ccc(/C=N/c2cccc(/C=C3\CCC/C(=C\c4cccc(/N=C/c5ccc(OC)cc5O)c4)C3=O)c2)c(O)c1: 3200
